Origin of the recorded values: ChEMBL document CHEMBL1201862

target.or.test.system: Aminopeptidase N (Plasmodium falciparum FcB1/Columbia)
Sequence (O96935 whole entry): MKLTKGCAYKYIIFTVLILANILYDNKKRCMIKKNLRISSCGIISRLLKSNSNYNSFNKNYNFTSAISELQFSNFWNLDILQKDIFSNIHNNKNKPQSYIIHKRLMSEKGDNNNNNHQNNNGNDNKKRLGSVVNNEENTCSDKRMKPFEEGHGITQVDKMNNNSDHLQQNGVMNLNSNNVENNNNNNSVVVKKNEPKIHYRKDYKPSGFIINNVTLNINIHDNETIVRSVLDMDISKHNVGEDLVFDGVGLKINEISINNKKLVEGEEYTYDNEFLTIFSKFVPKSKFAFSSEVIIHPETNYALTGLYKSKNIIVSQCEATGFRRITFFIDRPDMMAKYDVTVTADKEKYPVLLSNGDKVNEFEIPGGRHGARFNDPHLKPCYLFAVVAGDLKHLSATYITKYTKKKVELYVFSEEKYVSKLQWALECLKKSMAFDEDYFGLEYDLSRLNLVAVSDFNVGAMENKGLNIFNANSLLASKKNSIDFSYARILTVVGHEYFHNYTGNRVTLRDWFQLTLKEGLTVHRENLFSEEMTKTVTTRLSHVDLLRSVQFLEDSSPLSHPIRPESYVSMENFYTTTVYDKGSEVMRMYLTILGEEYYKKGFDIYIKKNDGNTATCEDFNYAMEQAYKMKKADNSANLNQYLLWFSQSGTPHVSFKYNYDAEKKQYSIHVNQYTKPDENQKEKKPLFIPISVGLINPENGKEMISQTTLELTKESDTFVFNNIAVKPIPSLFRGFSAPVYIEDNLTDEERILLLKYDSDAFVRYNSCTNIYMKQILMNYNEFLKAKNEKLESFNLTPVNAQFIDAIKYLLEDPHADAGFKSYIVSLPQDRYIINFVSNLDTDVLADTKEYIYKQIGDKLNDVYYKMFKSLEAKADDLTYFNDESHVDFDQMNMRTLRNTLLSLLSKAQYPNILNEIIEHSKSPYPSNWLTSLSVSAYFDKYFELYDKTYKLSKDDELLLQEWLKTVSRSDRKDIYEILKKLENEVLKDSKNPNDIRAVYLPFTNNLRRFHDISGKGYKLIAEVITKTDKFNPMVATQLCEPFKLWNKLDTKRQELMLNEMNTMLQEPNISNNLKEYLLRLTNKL
assay.procedure: P. falciparum M1AAP inhibitors, biochemical, fluorogenic H-Leu-NHMec substrate, 1536-well (AID 1445)
Set-up: species or system Plasmodium falciparum 3D7, 3D7
Calls of active or inactive are those of the source.
Listing: IC50 of selected compounds

// solved cases for IC50 follow
• CCOC(=O)N1CCN(C(=O)c2ccc3c(c2)sc2nc(-c4ccccc4)cn23)CC1 = 73.4 µM (active)
• Cc1ccc(NC(=O)Nc2cccs2)nc1 = 26.4 µM (active)
• O=C(/C=C/c1cccc([N+](=O)[O-])c1)N1CCN(Cc2ccc3c(c2)OCO3)CC1 = 108 µM (active)

# evaluate next
(Q) Endpoint output: IC50 of CCc1oc2ccccc2c1C(=O)c1cc(Br)c(O)c(Br)c1 [BENZBROMARONE] . Value?
(A) 62.8 µM (active)

====

assay.procedure: Shn3 3'UTR reporter inhibitors, dose response, cell-based, Clone20 osteoblasts, firefly luciferase, cherry-picked (AID 624132);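 note: firefly luciferase luminescence from reporter carrying the Shn3 3'UTR in osteoblasts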
Assay type: functional
Calls of active or inactive are those of the source.
Let's look at some compounds and their measured AC50.

(Q) Need AC50 of CC(C)n1c(/C=C/[C@@H](O)C[C@@H](O)CC(=O)O)c(-c2ccc(F)cc2)c2ccccc21 [FLUVASTATIN SODIUM] , thanks.
(A) 2.4 µM (active)

(Q) Queued: C[C@@H]1CN([C@@H](C)CO)C(=O)c2cc(NC(=O)Nc3ccc(F)cc3)ccc2O[C@@H]1CN(C)Cc1ccc(Oc2ccccc2)cc1
(A) 9.38 µM (active)

(Q) Follow-up entry: Cc1ccc(C(=O)/C=C/c2ccc(-c3ccc(C)cc3)o2)cc1
(A) 2.79 µM (active)

(Q) And for CCC12CN(S(=O)(=O)c3ccc(C)cc3)CC(CC)(CN(S(=O)(=O)c3ccc(C)cc3)C1)C2=O ?
(A) 3.48 µM (active)

(Q) Input CCOC(=O)c1cn(CC(=O)Nc2cccc(Cl)c2C)nn1
(A) 4.65 µM (active)

(Q) Please give the result for CC1(C)CC2CC(C)(CN2c2ncnc3ccc(Br)cc23)C1 (stereo unspecified) too.
(A) 2.11 µM (active)

====

target.or.test.system: Peroxisome proliferator-activated receptor gamma/Nuclear receptor coactivator 3 (Homo sapiens);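 note: agonist potency for raising coactivator recruitment to the receptor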
Sequence (P37231 whole entry): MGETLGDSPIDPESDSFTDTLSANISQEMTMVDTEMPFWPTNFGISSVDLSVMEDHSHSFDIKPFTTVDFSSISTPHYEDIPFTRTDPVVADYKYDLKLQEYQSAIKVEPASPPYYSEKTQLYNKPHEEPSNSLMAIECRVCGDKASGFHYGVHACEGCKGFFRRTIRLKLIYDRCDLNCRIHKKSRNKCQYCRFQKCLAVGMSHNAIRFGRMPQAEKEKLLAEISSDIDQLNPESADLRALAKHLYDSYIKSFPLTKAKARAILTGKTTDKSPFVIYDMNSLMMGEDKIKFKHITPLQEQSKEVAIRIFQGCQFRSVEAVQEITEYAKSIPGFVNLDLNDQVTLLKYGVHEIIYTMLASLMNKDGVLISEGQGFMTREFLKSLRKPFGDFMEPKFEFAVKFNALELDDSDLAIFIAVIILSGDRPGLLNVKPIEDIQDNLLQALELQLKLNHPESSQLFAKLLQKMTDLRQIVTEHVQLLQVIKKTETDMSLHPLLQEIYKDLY
Sequence (Q9Y6Q9 whole entry, further chain): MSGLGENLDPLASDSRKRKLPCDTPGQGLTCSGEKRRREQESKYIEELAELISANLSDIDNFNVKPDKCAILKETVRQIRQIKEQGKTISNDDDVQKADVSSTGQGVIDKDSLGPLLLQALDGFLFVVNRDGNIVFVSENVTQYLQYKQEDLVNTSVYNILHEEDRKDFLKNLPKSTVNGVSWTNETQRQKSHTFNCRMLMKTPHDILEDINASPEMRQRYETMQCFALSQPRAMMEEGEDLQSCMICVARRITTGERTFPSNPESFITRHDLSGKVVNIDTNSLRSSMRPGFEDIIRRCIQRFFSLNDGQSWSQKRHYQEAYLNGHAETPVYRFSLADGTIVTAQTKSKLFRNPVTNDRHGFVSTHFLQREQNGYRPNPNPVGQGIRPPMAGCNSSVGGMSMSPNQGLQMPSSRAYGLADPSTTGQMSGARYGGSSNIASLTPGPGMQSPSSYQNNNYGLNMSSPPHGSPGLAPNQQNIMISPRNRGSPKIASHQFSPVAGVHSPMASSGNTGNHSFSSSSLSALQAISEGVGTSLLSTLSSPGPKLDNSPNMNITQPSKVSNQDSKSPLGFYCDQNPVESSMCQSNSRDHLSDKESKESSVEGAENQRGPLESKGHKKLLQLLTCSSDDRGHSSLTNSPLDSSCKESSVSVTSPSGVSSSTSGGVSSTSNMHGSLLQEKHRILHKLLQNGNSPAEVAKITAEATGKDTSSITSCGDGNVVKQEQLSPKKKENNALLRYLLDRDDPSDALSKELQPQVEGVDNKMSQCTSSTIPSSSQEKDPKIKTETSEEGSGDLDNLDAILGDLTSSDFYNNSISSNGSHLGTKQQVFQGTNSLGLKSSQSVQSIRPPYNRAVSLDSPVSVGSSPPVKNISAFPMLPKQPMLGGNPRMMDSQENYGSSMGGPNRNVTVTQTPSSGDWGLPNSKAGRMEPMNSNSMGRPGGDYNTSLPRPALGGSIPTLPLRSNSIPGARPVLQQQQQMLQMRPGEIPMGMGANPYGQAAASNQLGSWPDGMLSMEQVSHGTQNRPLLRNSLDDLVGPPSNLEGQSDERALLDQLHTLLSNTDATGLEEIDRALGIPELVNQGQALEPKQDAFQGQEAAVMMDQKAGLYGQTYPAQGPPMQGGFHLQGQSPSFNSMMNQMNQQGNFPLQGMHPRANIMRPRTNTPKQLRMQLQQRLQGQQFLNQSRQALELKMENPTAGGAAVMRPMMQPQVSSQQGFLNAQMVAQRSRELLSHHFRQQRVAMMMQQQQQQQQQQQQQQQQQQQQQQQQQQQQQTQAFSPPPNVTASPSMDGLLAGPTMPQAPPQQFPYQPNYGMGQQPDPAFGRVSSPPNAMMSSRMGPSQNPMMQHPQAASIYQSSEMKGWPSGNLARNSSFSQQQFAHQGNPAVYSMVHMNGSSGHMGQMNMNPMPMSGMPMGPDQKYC
Type: functional
reported.metric: EC50

(Q) Any idea what EC50 was measured for CCN(CC)S(=O)(=O)c1cccc(NC(=O)COC(=O)c2nnc(O)c3ccccc23)c1 ?
(A) > 79.4 µM (not active)

(Q) Also O=C(c1cnc(-c2ccc(Cl)cc2)s1)c1ccc(Cl)cc1Cl ?
(A) 38.7 µM (not active)

(Q) Now give it for Cc1cc(C)n(-c2nc(SCC(=O)Nc3nccs3)c3c4c(sc3n2)COC(C)(C)C4)n1 too.
(A) > 79.4 µM (not active)

(Q) Input COC(=O)c1ccc(C(=O)OC)c(NC(=O)C(C)(C)C)c1
(A) > 79.4 µM (not active)

(Q) # repeat for CCCCOc1ccc(NC2=NC3(CCCC3)N=C(N)N2)cc1
(A) > 79.4 µM (not active)

(Q) Cool, now Cc1n[nH]c(C)c1S(=O)(=O)N(CC(=O)Nc1ccc2c(c1)OCCO2)c1ccc(C(C)C)cc1
(A) > 79.4 µM (not active)

====

target.or.test.system: Phospholipase A2 (Homo sapiens, UniProt P04054);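 note: confirmatory dose-response counterscreen on phospholipase A2, testing hits that came from an ultra-high-throughput screen for ATG4B inhibitors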
Sequence (P04054 whole entry): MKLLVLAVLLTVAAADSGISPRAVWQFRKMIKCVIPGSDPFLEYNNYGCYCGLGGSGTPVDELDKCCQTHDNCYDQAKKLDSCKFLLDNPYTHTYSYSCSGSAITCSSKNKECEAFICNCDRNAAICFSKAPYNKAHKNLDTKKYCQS
Format: functional
The source made the active and inactive calls.
Your response should consist of one outcome taken from active, inactive

Please review the following examples before continuing.
• O=c1[nH]c(=S)[nH]c2c1C(c1ccc(Br)cc1)c1c([nH]c(=S)[nH]c1=O)O2 = inactive
• Cc1sc2nc(C(C)C)nc(SCC(=O)NCc3ccco3)c2c1C = active
• CCOC(=O)c1c(NC=C2C(=O)CC(C)(C)CC2=O)sc(C)c1C = active
• O=C1C=C(N2CCOCC2)c2ccccc2C1=O = inactive

Now, please, on to the next molecule.
(Q) Dear all, I need the recorded test outcome for COc1cc(NS(=O)(=O)c2ccc(Nc3nc(-c4cccc([N+](=O)[O-])c4)cs3)cc2)nc(OC)n1 , thank you.
(A) active

====

Recorded AC50 values for a group of compounds are listed next.
target.or.test.system: Cytochrome P450 1A2 (Homo sapiens, UniProt P05177);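 note: PubChem cytochrome P450 panel assay, CYP1A2 panel member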
Sequence (P05177 whole entry): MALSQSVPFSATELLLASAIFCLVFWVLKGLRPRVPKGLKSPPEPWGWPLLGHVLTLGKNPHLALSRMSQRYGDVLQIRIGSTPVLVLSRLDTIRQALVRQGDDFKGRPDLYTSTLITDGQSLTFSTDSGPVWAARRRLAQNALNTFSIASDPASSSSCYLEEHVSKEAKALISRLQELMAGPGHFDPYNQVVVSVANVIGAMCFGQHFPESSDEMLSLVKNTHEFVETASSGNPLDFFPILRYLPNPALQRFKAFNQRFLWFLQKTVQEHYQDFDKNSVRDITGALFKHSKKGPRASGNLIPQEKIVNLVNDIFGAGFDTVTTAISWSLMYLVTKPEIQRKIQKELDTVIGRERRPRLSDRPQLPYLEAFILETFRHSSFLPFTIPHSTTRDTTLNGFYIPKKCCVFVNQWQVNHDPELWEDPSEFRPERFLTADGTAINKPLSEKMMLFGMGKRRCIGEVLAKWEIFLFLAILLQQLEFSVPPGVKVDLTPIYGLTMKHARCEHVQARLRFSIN

Some compounds with known AC50 results, for comparison:
- COC(=O)[C@@]1(Cc2ccc(F)cc2)[C@H]2c3cc(C(=O)N4CCCC4)n(CCN4CNCC4=O)c3C[C@H]2CN1C(=O)c1ccccc1: 15.8 µM (inconclusive)
- O=C(O)c1ccccc1Nc1ccccc1: 15.8 µM (inconclusive)
- CN1CCN(c2ncc3ncc(=O)n(CCC#N)c3n2)CC1: 31.6 µM (inconclusive)
- CC(C)C(=O)NCCn1ccc2ccccc21: 20 µM (inconclusive)
- O=C(NCCOC12CC3CC(CC(C3)C1)C2)c1cccc(Br)c1: 17.8 µM (inconclusive)
- CC1(O)CC(=O)N(c2ccccc2)O1 (stereo not given): 22.4 µM (inconclusive)

(Q) Query for Cytochrome P450 1A2 (Homo sapiens, UniProt P05177): what AC50 does the record show for C[N+](C)([O-])CCC=C1c2ccccc2CCc2ccccc21 [AMITRIPTYLINOXIDE] ?
(A) 0.794 µM (inconclusive)

(Q) Next up: Cc1cnc(CNc2nc(-c3ccc(C(=O)N(C)C)cc3)nc3ccccc23)cn1
(A) 25.1 µM (inconclusive)

(Q) Please answer likewise for Cn1cccc1C(=O)N1CCC2(CC1)CCN(c1ccccc1)CC2
(A) 12.6 µM (inconclusive)

(Q) Further, for O=C1NCN(c2ccccc2)C12CCN(C[C@H]1COc3ccccc3O1)CC2 ?
(A) 20 µM (inconclusive)

(Q) Param item: Cc1nnc(SCC(=O)Nc2nccs2)nc1O
(A) 31.6 µM (inconclusive)

(Q) Would you kindly repeat that for CN(C)C(=O)c1ccc(-c2nccc(NCc3ccccc3)n2)cc1 ?
(A) 15.8 µM (inconclusive)

(Q) Another compound to check: Cc1cn2c(-c3ccncc3)nnc2s1
(A) 10 µM (inconclusive)
